tgt: AURKC (Homo sapiens)
Sequence (Q9UQB9 whole entry): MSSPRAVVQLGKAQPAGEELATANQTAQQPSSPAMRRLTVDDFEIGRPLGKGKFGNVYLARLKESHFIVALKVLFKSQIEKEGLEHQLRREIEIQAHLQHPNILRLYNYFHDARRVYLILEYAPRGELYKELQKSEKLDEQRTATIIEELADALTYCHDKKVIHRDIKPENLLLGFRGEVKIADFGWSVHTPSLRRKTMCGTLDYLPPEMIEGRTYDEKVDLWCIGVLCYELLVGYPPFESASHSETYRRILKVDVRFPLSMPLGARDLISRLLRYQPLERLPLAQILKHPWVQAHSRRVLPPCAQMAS
protocol-summary: KINOMEscan competition binding
measurement-setup: read-out: %Inh AURKC
Outcome: class 1 for inhibition at 1 µM of at least 50%; class 0 for anything lower.

Input line: Quick check: does O=c1cc(N2CCOCC2)nc2n(Cc3cccc(Cl)c3Cl)c(C3CC3)nn12 [UNC10225469A] have inhibition at 1 µM greater than or equal to 50%?
Output line: class 0

Input line: Quick check: does COc1cccc(OC)c1C(=O)Nc1cccc(-c2nn3ccccc3c2-c2ccnc(Nc3cccc(F)c3)n2)c1 [UNC10225310A] have inhibition at 1 µM greater than or equal to 50%?
Output line: class 1

Input line: Quick check: does Cn1cc(-c2cnc(N)c3c(-c4ccc5c(c4)CCN5C(=O)Cc4ccccc4)csc23)cn1 [UNC10225012A] have inhibition at 1 µM greater than or equal to 50%?
Output line: class 1

Input line: Quick check: does Cc1ccc(NC(=O)Nc2cccc(C(F)(F)F)c2)cc1 [UNC10225187A] have inhibition at 1 µM greater than or equal to 50%?
Output line: class 0

---

So I've got a bunch of compounds here, and I need their inhibition at 1 µM values.
tgt: EPHA4 (Homo sapiens, UniProt P54764)
Sequence (P54764 20-986): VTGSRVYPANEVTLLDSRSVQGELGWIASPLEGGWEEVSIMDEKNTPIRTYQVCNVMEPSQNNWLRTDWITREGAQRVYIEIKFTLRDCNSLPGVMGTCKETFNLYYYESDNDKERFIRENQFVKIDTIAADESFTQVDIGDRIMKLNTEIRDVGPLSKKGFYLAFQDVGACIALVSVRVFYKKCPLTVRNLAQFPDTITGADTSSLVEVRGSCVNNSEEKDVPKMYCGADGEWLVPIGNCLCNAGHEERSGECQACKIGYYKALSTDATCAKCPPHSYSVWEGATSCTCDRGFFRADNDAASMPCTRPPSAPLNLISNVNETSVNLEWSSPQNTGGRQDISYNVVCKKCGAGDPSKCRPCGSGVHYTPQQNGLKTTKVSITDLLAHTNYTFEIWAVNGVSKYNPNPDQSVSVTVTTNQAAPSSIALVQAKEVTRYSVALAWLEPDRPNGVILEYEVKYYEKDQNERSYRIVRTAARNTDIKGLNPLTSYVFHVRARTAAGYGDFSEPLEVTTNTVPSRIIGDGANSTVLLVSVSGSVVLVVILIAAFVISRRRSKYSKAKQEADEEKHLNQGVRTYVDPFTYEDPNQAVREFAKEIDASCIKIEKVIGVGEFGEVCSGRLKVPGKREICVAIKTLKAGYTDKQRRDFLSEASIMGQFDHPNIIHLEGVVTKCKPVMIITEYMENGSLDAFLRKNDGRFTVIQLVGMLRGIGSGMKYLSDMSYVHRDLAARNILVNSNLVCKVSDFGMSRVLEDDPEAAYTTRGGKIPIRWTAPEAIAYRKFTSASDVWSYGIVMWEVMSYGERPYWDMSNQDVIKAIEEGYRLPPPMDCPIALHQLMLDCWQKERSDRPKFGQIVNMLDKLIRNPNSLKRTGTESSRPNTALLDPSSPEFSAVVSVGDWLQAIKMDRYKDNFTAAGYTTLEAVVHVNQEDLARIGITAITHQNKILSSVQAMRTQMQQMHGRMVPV
protocol-summary: KINOMEscan competition binding
measurement-setup: read-out: %Inh EPHA4
Please reply with the bare figure in % and do not write the unit itself.

Input line: Output inhibition at 1 µM of CS(=O)(=O)Cc1ccc(Nc2nccc(-c3c(-c4cccc(NC(=O)C5CCCCC5)c4)nn4ncccc34)n2)cc1 [UNC10225159A]
Output line: 14

Input line: Output inhibition at 1 µM of Cn1cc(-c2cnc(N)c3c(-c4ccc5c(c4)CCN5C(=O)Cc4ccccc4)csc23)cn1 [UNC10225012A]
Output line: 11

Input line: Output inhibition at 1 µM of Cc1ccc(NC(=O)Nc2cccc(C(F)(F)F)c2)cc1 [UNC10225187A]
Output line: 6

Input line: Output inhibition at 1 µM of O=c1cc(N2CCOCC2)nc2n(Cc3cccc(Cl)c3Cl)c(C3CC3)nn12 [UNC10225469A]
Output line: 11

Input line: Output inhibition at 1 µM of COc1cccc(OC)c1C(=O)Nc1cccc(-c2nn3ccccc3c2-c2ccnc(Nc3cccc(F)c3)n2)c1 [UNC10225310A]
Output line: 0

---

So I've got a bunch of molecules here, and I need their inhibition at 1 µM values.
tgt: CAMK1 (Homo sapiens, UniProt Q14012)
Sequence (Q14012 whole entry): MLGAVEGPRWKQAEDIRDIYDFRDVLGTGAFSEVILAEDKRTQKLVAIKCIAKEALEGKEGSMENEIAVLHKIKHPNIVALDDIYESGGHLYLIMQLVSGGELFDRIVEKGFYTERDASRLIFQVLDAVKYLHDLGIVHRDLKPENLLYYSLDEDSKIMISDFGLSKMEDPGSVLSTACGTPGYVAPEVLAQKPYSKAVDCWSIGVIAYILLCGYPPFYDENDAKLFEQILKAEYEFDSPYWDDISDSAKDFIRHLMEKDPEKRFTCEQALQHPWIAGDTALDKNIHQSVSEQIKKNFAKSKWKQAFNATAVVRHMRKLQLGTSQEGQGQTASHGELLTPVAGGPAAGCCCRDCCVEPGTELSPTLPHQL
protocol-summary: KINOMEscan competition binding
measurement-setup: read-out: %Inh CAMK1
Don't forget the unit after the number, please.

Input line: Output inhibition at 1 µM of O=c1cc(N2CCOCC2)nc2n(Cc3cccc(Cl)c3Cl)c(C3CC3)nn12 [UNC10225469A]
Output line: 0%

Input line: Output inhibition at 1 µM of COc1cccc(OC)c1C(=O)Nc1cccc(-c2nn3ccccc3c2-c2ccnc(Nc3cccc(F)c3)n2)c1 [UNC10225310A]
Output line: 19%

Input line: Output inhibition at 1 µM of Cc1ccc(NC(=O)Nc2cccc(C(F)(F)F)c2)cc1 [UNC10225187A]
Output line: 7%

Input line: Output inhibition at 1 µM of Cn1cc(-c2cnc(N)c3c(-c4ccc5c(c4)CCN5C(=O)Cc4ccccc4)csc23)cn1 [UNC10225012A]
Output line: 0%

Input line: Output inhibition at 1 µM of CS(=O)(=O)Cc1ccc(Nc2nccc(-c3c(-c4cccc(NC(=O)C5CCCCC5)c4)nn4ncccc34)n2)cc1 [UNC10225159A]
Output line: 0%

The measured values listed here are drawn from paper PMC5540273.
